These measurements were taken from paper PMC8338941.

Target: Puf6-PUM (Saccharomyces cerevisiae, UniProt Q04373 161-656)
Sequence (Q04373 161-656): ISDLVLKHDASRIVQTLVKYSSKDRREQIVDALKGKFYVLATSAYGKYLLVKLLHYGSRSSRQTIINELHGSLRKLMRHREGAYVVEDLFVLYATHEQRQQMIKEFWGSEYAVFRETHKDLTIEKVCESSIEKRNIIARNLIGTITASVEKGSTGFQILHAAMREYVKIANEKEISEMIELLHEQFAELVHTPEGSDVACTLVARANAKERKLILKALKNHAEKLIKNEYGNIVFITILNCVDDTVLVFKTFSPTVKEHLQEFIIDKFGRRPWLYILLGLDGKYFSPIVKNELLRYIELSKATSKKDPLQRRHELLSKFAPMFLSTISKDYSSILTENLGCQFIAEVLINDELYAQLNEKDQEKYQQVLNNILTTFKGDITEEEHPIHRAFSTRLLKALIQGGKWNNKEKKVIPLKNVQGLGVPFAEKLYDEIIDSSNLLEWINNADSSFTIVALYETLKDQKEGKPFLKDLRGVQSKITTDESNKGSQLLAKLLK
Experiment: fluorescence anisotropy; buffer promoting tertiary contact; Anisotropy: 2.5 nM Cy5-RNA, 0.16 nM-20 uM protein, 27 C (stated for H68), buffer composition not in the material; FRET: 20 mM HEPES pH 7.4, 100 mM K+ (116 mM KCl in the supplement), 0-100 mM Mg2+
Conditions: protein: recombinant; (pET47-Puf6 (161-656)); label: Cy5 (sCy5; sCy3 in the FRET construct); three hairpins, H22-H88 kissing loop, GAAA tetraloop docking
measurement_name: Kd

Req: Give its Kd value. Item: KL-TLGAAA (H68-H88-H22 RNA), Cy5 (structured_RNA) RNA: UGAAGAAAUUCAAAAAAAAAGCUCGGAAUUUGAGCAAAAAAAAAAAACGGUGGUAAAUUCCAUCG
Resp: ~125 nM
